Kindly supply the reported Kb values for the records listed here.
biological target: human alpha2A receptors (Homo sapiens); construct: host or cells: CHO cells, cotransfected with pCEP-Gα16; experiment: Determination of alpha2A antagonistic activity in vitro (FLIPR calcium assay, CHO cells); type: cell-based; settings: Kb calculated with the Cheng-Prusoff equation from IC50; adrenaline as agonist; CHO cells, human alpha2A; read-out: Alpha 2A Adrenaline Kb
Counter-ions that a name gives are not always drawn.
# output: bare number, implied unit nM

[in] Look up Kb of O=C1CCCN1c1ncsc1N1CCN(C[C@H]2COc3ccccc3O2)CC1 [Compound of example 20] and report it.
[out] 405

[in] Look up Kb of Cc1c(N2CCCC2=O)c(N2CCN(C[C@H]3COc4ccccc4O3)CC2)nn1C [Compound of example 14] and report it.
[out] 382

[in] Look up Kb of c1ccc2c(c1)OC[C@H](CN1CCN(c3nsnc3Nc3ccncn3)CC1)O2 [Compound of example 19] and report it.
[out] 459

[in] Look up Kb of c1cnc(Nc2nsnc2N2CCN(C[C@H]3COc4ccccc4O3)CC2)nc1 [Compound of example 18] and report it.
[out] 233

[in] Look up Kb of c1ccc(-n2nccc2N2CCN(C[C@H]3COc4ccccc4O3)CC2)nc1 [Compound of example 10] and report it.
[out] 350

[in] Look up Kb of c1ccc2c(c1)OC[C@H](CN1CCN(c3nsc4cccnc34)CC1)O2 [Compound of example 36, hydrochloride] and report it.
[out] 298

[in] Look up Kb of Cc1c(C(C)(C)O)c(N2CCN(C[C@H]3COc4ccccc4O3)CC2)nn1C [Compound of example 13] and report it.
[out] 43

###

Molecular target: human alpha2C receptors (Homo sapiens, UniProt P18825)
Construct: host or cells: CHO cells, cotransfected with pCEP-Gα16
Sequence (P18825 1-462): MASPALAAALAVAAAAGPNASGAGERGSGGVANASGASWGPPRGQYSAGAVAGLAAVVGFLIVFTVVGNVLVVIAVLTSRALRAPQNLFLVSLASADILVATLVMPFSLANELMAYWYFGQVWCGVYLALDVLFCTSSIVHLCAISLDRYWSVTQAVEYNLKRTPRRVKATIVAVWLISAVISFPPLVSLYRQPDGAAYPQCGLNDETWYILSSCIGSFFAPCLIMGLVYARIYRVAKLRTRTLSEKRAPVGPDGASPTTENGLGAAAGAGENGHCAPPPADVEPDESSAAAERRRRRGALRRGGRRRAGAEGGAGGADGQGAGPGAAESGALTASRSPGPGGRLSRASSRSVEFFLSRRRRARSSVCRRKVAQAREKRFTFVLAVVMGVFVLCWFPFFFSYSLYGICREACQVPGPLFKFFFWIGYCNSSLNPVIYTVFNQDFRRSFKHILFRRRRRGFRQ
Test: Determination of alpha2C antagonistic activity in vitro (FLIPR calcium assay, CHO cells)
Format: cell-based
Conditions: antagonism of adrenaline stimulation; CHO cells stably transfected with human alpha2C receptor and Gα16; intracellular calcium (FLIPR); read-out: Alpha 2C Adrenaline IC50
EXPERIMENTAL_ENDPOINT: IC50 (nM)
# output: bare number, implied unit nM

[in] Report value: IC50, system: human alpha2C receptors (Homo sapiens, UniProt P18825), compound: Cc1c(N2CCC2=O)c(N2CCN(C[C@H]3COc4ccccc4O3)CC2)nn1C [Compound of example 4]
[out] 0.01

[in] Report value: IC50, system: human alpha2C receptors (Homo sapiens, UniProt P18825), compound: COCc1c(N2CCN(C[C@H]3COc4ccccc4O3)CC2)nn(C)c1C [Compound of example 11]
[out] 0.165

[in] Report value: IC50, system: human alpha2C receptors (Homo sapiens, UniProt P18825), compound: CC(=O)c1nsnc1N1CCN(C[C@H]2COc3ccccc3O2)CC1 [Compound of example 33]
[out] 40.4

###

target: human alpha2C receptors (Homo sapiens, UniProt P18825); assay: Determination of alpha2C antagonistic activity in vitro (FLIPR calcium assay, CHO cells); conditions: antagonism of adrenaline stimulation; CHO cells stably transfected with human alpha2C receptor and Gα16; intracellular calcium (FLIPR); read-out: Alpha 2C Adrenaline IC50
Counter-ions that a name gives are not always drawn.
EXPERIMENTAL_ENDPOINT: IC50

[in] Look up IC50 of c1ccc2c(c1)OC[C@H](CN1CCN(c3nsc4cccnc34)CC1)O2 [Compound of example 36, hydrochloride] and report it.
[out] 13.6 nM

[in] Look up IC50 of CNC(=O)c1nsnc1N1CCN(C[C@H]2COc3ccccc3O2)CC1 [Compound of example 29, hydrochloride] and report it.
[out] 424 nM

[in] Look up IC50 of Cc1cccc(-n2nc(C)cc2N2CCN(C[C@H]3COc4ccccc4O3)CC2)n1 [Compound of example 40] and report it.
[out] 0.26 nM

[in] Look up IC50 of Cc1c(N2CCNC2=O)c(N2CCN(C[C@H]3COc4ccccc4O3)CC2)nn1C [Compound of example 9] and report it.
[out] 0.06 nM

###

Kindly supply the reported Kb values for the records listed here.
Target: human alpha2A receptors (Homo sapiens)
Construct: host or cells: CHO cells, cotransfected with pCEP-Gα16
Sequence (P08913 1-465): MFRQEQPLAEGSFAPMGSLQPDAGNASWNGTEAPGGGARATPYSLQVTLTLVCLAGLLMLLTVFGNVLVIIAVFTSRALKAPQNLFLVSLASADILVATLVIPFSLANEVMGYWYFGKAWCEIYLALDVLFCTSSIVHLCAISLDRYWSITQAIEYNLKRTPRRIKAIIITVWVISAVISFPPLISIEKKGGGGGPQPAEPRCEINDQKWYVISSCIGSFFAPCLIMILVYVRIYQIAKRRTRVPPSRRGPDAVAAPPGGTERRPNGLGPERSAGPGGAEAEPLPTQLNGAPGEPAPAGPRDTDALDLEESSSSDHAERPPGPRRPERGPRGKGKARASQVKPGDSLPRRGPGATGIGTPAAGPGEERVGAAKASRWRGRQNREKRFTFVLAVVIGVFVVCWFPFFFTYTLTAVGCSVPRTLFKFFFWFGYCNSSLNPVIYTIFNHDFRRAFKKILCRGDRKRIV
Assay: Determination of alpha2A antagonistic activity in vitro (FLIPR calcium assay, CHO cells)
Assay type: cell-based
Settings: Kb calculated with the Cheng-Prusoff equation from IC50; adrenaline as agonist; CHO cells, human alpha2A; read-out: Alpha 2A Adrenaline Kb
Structures can show the parent of a compound that is named as a salt.

[in] Look up Kb of "O=C1NCCN1c1nnc(N2CCN(C[C@H]3COc4ccccc4O3)CC2)s1" and report it.
[out] 514 nM

[in] Look up Kb of "COCc1scnc1N1CCN(C[C@H]2COc3ccccc3O2)CC1" and report it.
[out] 88 nM

[in] Look up Kb of "Cc1c(N2CCC2=O)c(N2CCN(C[C@H]3COc4ccccc4O3)CC2)nn1C" and report it.
[out] 217 nM

[in] Look up Kb of "Cc1cccc(-n2nc(C)cc2N2CCN(C[C@H]3COc4ccccc4O3)CC2)n1" and report it.
[out] 100 nM

[in] Look up Kb of "NC(=O)c1nsnc1N1CCN(C[C@H]2COc3ccccc3O2)CC1" and report it.
[out] > 449 nM

[in] Look up Kb of "Cc1c(N2C(=O)c3ccccc3C2=O)c(N2CCN(C[C@H]3COc4ccccc4O3)CC2)nn1C" and report it.
[out] < 0.004 nM

[in] Look up Kb of "CN1CCN(c2nsnc2N2CCN(C[C@H]3COc4ccccc4O3)CC2)C1=O" and report it.
[out] > 449 nM

[in] Look up Kb of "Cc1cc(N2CCN(C[C@H]3COc4ccccc4O3)CC2)n(-c2ccccn2)n1" and report it.
[out] 149 nM

[in] Look up Kb of "Cc1nsc(N2CCN(C[C@H]3COc4ccccc4O3)CC2)c1N1CCCC1=O" and report it.
[out] > 449 nM

[in] Look up Kb of CC1CCN(c2nsnc2N2CCN(C[C@H]3COc4ccccc4O3)CC2)C1=O (stereo partly shown) and report it.
[out] > 449 nM

[in] Look up Kb of "COCc1c(N2CCN(C[C@H]3COc4ccccc4O3)CC2)nn(C)c1C" and report it.
[out] 306 nM

[in] Look up Kb of "Cc1c(N2CCNC2=O)c(N2CCN(C[C@H]3COc4ccccc4O3)CC2)nn1C" and report it.
[out] > 449 nM

[in] Look up Kb of "COCc1nc(N2CCN(C[C@H]3COc4ccccc4O3)CC2)no1" and report it.
[out] > 449 nM

[in] Look up Kb of "COc1cccc(-n2nc(C)cc2N2CCN(C[C@H]3COc4ccccc4O3)CC2)n1" and report it.
[out] 82 nM

[in] Look up Kb of "CCOC(=O)c1c(N2CCN(C[C@H]3COc4ccccc4O3)CC2)nn(C)c1C" and report it.
[out] 120 nM

[in] Look up Kb of c1ccc(COc2ncccc2Nc2nsnc2N2CCN(C[C@H]3COc4ccccc4O3)CC2)cc1 [Compound of example 37, hydrochloride] and report it.
[out] > 449 nM

[in] Look up Kb of "CC(=O)c1nsnc1N1CCN(C[C@H]2COc3ccccc3O2)CC1" and report it.
[out] > 449 nM

[in] Look up Kb of "Cc1c(N2CCOC2=O)c(N2CCN(C[C@H]3COc4ccccc4O3)CC2)nn1C" and report it.
[out] 206 nM

[in] Look up Kb of "O=C1CCCN1c1nsnc1N1CCN(C[C@H]2COc3ccccc3O2)CC1" and report it.
[out] 385 nM

Source listed as patent US10774074B2.
